A collection of molecules and their measured kon, kinetics toward antigen with 0 µM MTX
tested on: human CD33; assay: Biacore SPR binding kinetics of anti-CD33 scFv-Fc clones with or without 10 µM MTX; conditions: CD33; 0 µM MTX; 37° C., pH 7.4; scFv-Fc
Observable: kon, kinetics toward antigen with 0 µM MTX

1) P16_E06: anti-CD33 clone with conditional affinity; VH SEQ ID NO: 29, VL SEQ ID NO: 30 (antibody, V domains shown, Synthetic Antibody) VH: QVQLVESGGGLVQAGGSLRLSCAASRRSSRSWAMHWVRQAPGKGLEWVAVISYDGRLKYYADSVKGRFTISRDNAEYLVYLQMNSLRAEDTAVYYCAAEGGDYPGTSDGGLDIWGQGTLVTVSS VL: DIQMTQSPSSLSASVGDRVTITCRASQSISNYLNWYQQKPGKAPKLLIYGASSLQSGVPSRFSGSGSGTDFTLTISSLQPEDFATYYCQQSYSAGTFGQGTKVEIK ... 120000 M⁻¹ s⁻¹
2) P07_C04: anti-CD33 clone with conditional affinity; VH SEQ ID NO: 25, VL SEQ ID NO: 26; also as scFv in CAR (antibody, V domains shown, Synthetic Antibody, also as scFv in CAR) VH: QVQLVESGGGLVQAGGSLRLSCAASRRSSRSWAMHWVRQAPGKGLEWVAVISYDGRLKYYADSVKGRFTISRDNAEYLVYLQMNSLRAEDTAVYYCAAEPDGEGTNGGLDIWGQGTLVTVSS VL: DIQMTQSPSSLSASVGDRVTITCRASQNISRYLNWYQQKPGKAPKLLIYSASSLQTGVPSRFSGSGSGTDFTLTISSLQPEDFATYYCQQSYSSGAFGQGTKVEIK ... 95000 M⁻¹ s⁻¹
3) P01_B02: anti-CD33 clone with increased affinity in presence of MTX; VH SEQ ID NO: 31, VL SEQ ID NO: 32 (antibody, V domains shown, Synthetic Antibody) VH: QVQLVESGGGLVQAGGSLRLSCAASRRSSRSWAMHWVRQAPGKGLEWVAVISYDGRLKYYADSVKGRFTISRDNAEYLVYLQMNSLRAEDTAVYYCAAADWYSGGGDALDIWGQGTLVTVSS VL: DIQMTQSPSSLSASVGDRVTITCRASQTIYNYLNWYQQKPGKAPKLLIYGASNLQSGVPSRFSGSGSGTDFTLTISSLQPEDFATYYCQQTYSSPTFGQGTKVEIK ... 140000 M⁻¹ s⁻¹
4) P02_E08: anti-CD33 clone with conditional affinity; VH SEQ ID NO: 37, VL SEQ ID NO: 38; also as scFv in CAR (antibody, V domains shown, Synthetic Antibody, also as scFv in CAR) VH: QVQLVESGGGLVQAGGSLRLSCAASRRSSRSWAMHWVRQAPGKGLEWVAVISYDGRLKYYADSVKGRFTISRDNAEYLVYLQMNSLRAEDTAVYYCAASDYDGGGLFDLWGQGTLVTVSS VL: QSVLTQPPSASGTPGQRVTISCSGSNSNIGDNYVHWYQQLPGTAPKLLIYMNNQRPSGVPDRFSGSKSGTSASLAISGLRSEDEADYYCATWDDSLSGVVFGTGTKLTVL ... 47000 M⁻¹ s⁻¹
